Target: GCase (Homo sapiens)
Construct: endogenous in cells; host or cells: HeLa cells
Sequence (P04062 40-536): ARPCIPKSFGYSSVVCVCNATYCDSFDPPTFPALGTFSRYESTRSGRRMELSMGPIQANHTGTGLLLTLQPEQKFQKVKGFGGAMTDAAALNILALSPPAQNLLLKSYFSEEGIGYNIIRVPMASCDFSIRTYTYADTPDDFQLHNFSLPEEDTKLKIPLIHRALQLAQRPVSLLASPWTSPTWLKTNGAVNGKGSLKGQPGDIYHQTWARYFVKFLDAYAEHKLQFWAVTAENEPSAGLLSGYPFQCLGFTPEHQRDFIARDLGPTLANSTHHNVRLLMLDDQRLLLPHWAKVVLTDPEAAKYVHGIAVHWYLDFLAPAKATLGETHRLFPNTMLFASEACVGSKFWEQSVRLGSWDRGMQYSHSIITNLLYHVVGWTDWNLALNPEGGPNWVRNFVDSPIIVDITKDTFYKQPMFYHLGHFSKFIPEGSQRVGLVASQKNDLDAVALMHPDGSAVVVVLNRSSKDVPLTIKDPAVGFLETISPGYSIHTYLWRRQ
Experiment: activation of GCase in a live cell PFB assay in HELA cells
Type: cell-based
pEC50: −log10 of the molar value.
Each item that follows carries a reported pEC50.

Solved cases (5 shown):
Molecule	pEC50
COc1ccc(OCC2CCN(CCCn3ccnc3C)CC2)cc1	< 4.00
CC1CCC(COc2cccnc2C(F)(F)F)CN1c1cnc2cnn(C3COC3)c2n1 (stereo not drawn)	> 5.00
O=C(c1ccc(Cn2cccn2)o1)N1CCC(OCc2ccccc2)CC1	< 4.00
CC1CCN(c2cnc3cnn(CC(F)F)c3n2)CC1COc1cccnc1C(F)(F)F (stereo not drawn)	> 5.00
CCN1CCC(NC(=O)N2CCC(COc3ccc(OC)cc3)CC2)C1 (stereo not drawn)	< 4.00

Reported pEC50 ( `CCCc1[nH]ncc1C(=O)N1CCC(OCc2ccccc2)CC1` ) = 4.00 to 4.30

Reported pEC50 ( `COc1ccc(OCC2CCN(C(=O)NCCc3nccs3)CC2)cc1` ) = < 4.00

Reported pEC50 ( Cc1ccccc1OCC1CCCN(C(=O)c2c(C3CC3)n(-c3ccccc3)c3nccnc23)C1 (stereo not drawn) ) = 4.30 to 5.00

Reported pEC50 ( `COc1ccc(OCC2CCN(c3nnc(N)s3)CC2)cc1` ) = < 4.00

====

Each item that follows carries a reported EC50.
Molecular target: GCase (Homo sapiens)
Construct: endogenous in cells
Sequence (P04062 40-536): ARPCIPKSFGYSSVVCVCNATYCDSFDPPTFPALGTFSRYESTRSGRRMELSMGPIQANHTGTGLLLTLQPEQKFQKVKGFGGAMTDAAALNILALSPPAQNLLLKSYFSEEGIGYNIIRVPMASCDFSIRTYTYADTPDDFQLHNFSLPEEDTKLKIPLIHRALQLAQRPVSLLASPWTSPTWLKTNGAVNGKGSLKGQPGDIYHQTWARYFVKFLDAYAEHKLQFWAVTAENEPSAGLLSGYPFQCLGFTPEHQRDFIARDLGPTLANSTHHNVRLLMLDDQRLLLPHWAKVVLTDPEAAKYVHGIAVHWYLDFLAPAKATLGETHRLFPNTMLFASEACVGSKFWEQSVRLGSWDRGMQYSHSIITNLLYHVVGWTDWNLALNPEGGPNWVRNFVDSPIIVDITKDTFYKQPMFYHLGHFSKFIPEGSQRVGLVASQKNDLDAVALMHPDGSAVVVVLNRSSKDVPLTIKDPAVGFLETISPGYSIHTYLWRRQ
Test: activation of GCase in a live cell PFB assay in HELA cells

Compound	EC50
CCc1ncc(C(=O)N2CCC(COc3ccc4c(c3)CCC4)CC2)cn1 [Compound 426]	10 to 50 µM
O=C(c1ccc2c(c1)CCCC2)N1CCC(Oc2ccccc2)CC1 [Compound 407]	10 to 50 µM
FC(F)Cn1ncc2ncc(N3CCCC(COc4cccnc4Cl)C3)nc21 (centres unmarked) [Compound 59]	< 10 µM
O=C(c1ccc2cc[nH]c2c1)N1CCC(Oc2cnccc2C(F)(F)F)CC1 [Compound 310]	10 to 50 µM
O=C(NCCc1ccccc1)N1CCC(Oc2ccc(C(F)(F)F)cn2)CC1 [Compound 379]	> 100 µM
FC(F)(F)c1ccc2sc([C@H]3[C@@H]4CN(c5cnc6cnn(C7COC7)c6n5)C[C@@H]43)nc2c1 [Compound 290]	10 to 50 µM
O=C(N1CCCC(COc2ccccc2)C1)C1(c2nnc(-c3ccccc3)o2)CCOCC1 (centres unmarked) [Compound 46]	10 to 50 µM
CC1CC(COc2cccnc2C(F)(F)F)CN(c2cnc3cnn(CC(F)F)c3n2)C1 (single isomer, unassigned) [Compound 47b]	< 10 µM

Reported EC50 ( O=C(c1cnc(-c2nncs2)cn1)N1C[C@@H]2[C@@H](COc3cccc(C(F)(F)F)n3)[C@@H]2C1 [Compound 247] ) = > 100 µM

====

Each item that follows carries a reported EC50.
molecular target: GCase (Homo sapiens, UniProt P04062); construct: endogenous in cells; test: activation of GCase in a live cell PFB assay in HELA cells

Compound	Assay value
C[C@@H]1CCN(c2cnc3cnn(CC(F)F)c3n2)C[C@@H]1COc1cccnc1C(F)(F)F [Compound 48a]	> 100 µM
CCn1c(=O)n(CC)c2nc(N3C[C@@H](C)C[C@H](COc4cccnc4C(F)(F)F)C3)cnc21 [Compound 288b]	10 to 50 µM

Reported EC50 ( `FC(F)Cn1ncc2ncc(N3C[C@@H]4[C@@H](COc5ncccc5C(F)(F)F)[C@@H]4C3)nc21` ) = 10 to 50 µM

Reported EC50 ( `C[C@@H]1CC[C@H](COc2cncc(C(F)(F)F)c2)CN1c1cnc2cnn(CC(F)F)c2n1` ) = 10 to 50 µM

Reported EC50 ( O=C(c1cc(=O)c2cc(Cl)ccc2o1)N1CCCC(COc2ccccc2)C1 (centres unmarked) ) = 10 to 50 µM

Reported EC50 ( Cc1cnccc1-c1ccc(C(=O)N2CCCC(COc3ccccc3)C2)s1 (centres unmarked) ) = < 10 µM

Reported EC50 ( C[C@H]1CCN(c2cnc3cnn(CC(F)F)c3n2)C[C@H]1COc1cccnc1C(F)(F)F [Compound 48b] ) = > 100 µM

Reported EC50 ( `COc1ccc(OCC2CCN(CC(C)(C)N3CCOCC3)CC2)cc1` ) = > 100 µM

====

target: GCase (Homo sapiens, UniProt P04062); construct: endogenous in cells; assay: activation of GCase in a live cell PFB assay in HELA cells
Property measured: EC50

Solved cases (8 shown):
Compound	EC50
FC(F)Cn1ncc2ncc(N3CCC(COc4ccc(C(F)(F)F)nc4)CC3)nc21 [Compound 316]	< 10 µM
CCCC(C(=O)N1CCCC(COc2ccccc2)C1)n1nccc1C1CC1 (stereo not drawn) [Compound 9]	10 to 50 µM
FC(F)Cn1ncc2ncc(N3CCCC(F)(COc4cccnc4C(F)(F)F)C3)nc21 (stereo not drawn) [Compound 35]	10 to 50 µM
COc1ccc(OCC2CCN(C(=O)Nc3cccc(CN)c3)CC2)cc1 [Compound 442]	> 100 µM
CC(Oc1cccnc1C(F)(F)F)C1CCCN(c2cnc3cnn(CC(F)F)c3n2)C1 (stereo not drawn) [Compound 26]	< 10 µM
O=C(c1cc(CC2CC2)on1)N1CCCC(COc2ccccc2)C1 (stereo not drawn) [Compound 188]	> 100 µM
COc1ccc(OCC2CCN(C(=O)Nc3cnn(C)c3C)CC2)cc1 [Compound 439]	50 to 100 µM
Cc1ccccc1CCC1CCCN(C(=O)c2cnn(-c3ccccc3)n2)C1 (stereo not drawn) [Compound 15]	10 to 50 µM

Please turn your attention to the following entry.
Reported EC50 ( COc1ccc(OCC2CCN(c3nc(C)ncc3Cl)CC2)cc1 [Compound 421] ) = 10 to 50 µM

====

biological target: GCase (Homo sapiens, UniProt P04062); construct: endogenous in cells; experiment: activation of GCase in a live cell PFB assay in HELA cells
Property measured: EC50

Molecule	EC50
FC(F)Cn1ncc2ncc(N3CCC(COc4ccc(C(F)(F)F)cn4)CC3)nc21	10 to 50 µM
CSCc1ccc(C(=O)N2CCC(OCc3ccccc3)CC2)o1	> 100 µM
Fc1cc(F)cc(OCC2CCCN(c3cnc4cnn(C5COC5)c4n3)C2)c1 (centres unmarked)	10 to 50 µM
C[C@@H](Oc1ccccc1C(F)(F)F)[C@@H]1CCCN(c2cnc3cnn(CC(F)F)c3n2)C1	10 to 50 µM
C[C@@H]1CC[C@H](COc2cc(C(F)(F)F)ccn2)CN1c1cnc2cnn(CC(F)F)c2n1	50 to 100 µM

Reported EC50 ( `O=c1cc(-c2ccccc2)cc(N2CCC[C@H](COc3cccnc3C(F)(F)F)C2)[nH]1` ) = 10 to 50 µM

Reported EC50 ( `FC(F)Cn1ncc2ncc(N3CCC(COc4cccc(C(F)(F)F)n4)CC3)nc21` ) = 10 to 50 µM

Reported EC50 ( `FC(F)Cn1ncc2ncc(N3C[C@@H]4[C@@H](COc5cncc(C(F)(F)F)c5)[C@@H]4C3)nc21` ) = 10 to 50 µM

These data points were gathered from patent US20240262832A1.
